Test system: CAKI-1
assay procedure: AUC of dose-response viability curve, drug alone (arbitrary (AUC of normalised viability)); higher = less growth inhibition
measurement setup: treatment: drug alone; 5 days
observed property: AUC of dose-response viability curve

compound: CNC(=O)c1ccc(C)c(-n2c(C)cc(OCc3ccc(F)cc3F)c(Br)c2=O)c1
reading: 3.1
--
compound: O=C(NOC[C@H](O)CO)c1ccc(F)c(F)c1Nc1ccc(I)cc1F
reading: 1.95
--
compound: Cc1cc2c(F)c(Oc3ncnn4cc(OC[C@@H](C)OC(=O)[C@H](C)N)c(C)c34)ccc2[nH]1
reading: 3.29
--
compound: CCc1cnn2c(NCc3ccc[n+]([O-])c3)cc(N3CCCC[C@H]3CCO)nc12
reading: 0.874
--
compound: O=c1cc(N2CCOCC2)oc2c(-c3cccc4c3sc3ccccc34)cccc12
reading: 2.74
--
compound: Cc1ccc([N+](=O)[O-])cc1S(=O)(=O)N(C)/N=C/c1cnc2ccc(Br)cn12.Cl [PIK-75]
reading: 0.988
--
compound: O=C1NCCc2[nH]c(-c3ccncc3)cc21
reading: 3.31
--
compound: COc1cc(N2CCC(N3CCN(C)CC3)CC2)ccc1Nc1ncc(Cl)c(Nc2ccccc2S(=O)(=O)C(C)C)n1 [TAE684 (NVP-TAE684)]
reading: 2.9
